assay: Tmax in Wistar rat at 5 mg/kg, iv; format: ADME, organism-based; design: dose 5 mg/kg, route intravenous; conditions: in vivo
Property label: Tmax (min)
Give bare numbers, in min.

Need Tmax of CCCc1cc(=O)oc2c3c(c4c(c12)OC(C)(C)C=C4)OC(CCl)CC3=O (stereo unspecified) , thanks.
1.8

====

test: Half life in Wistar rat at 5 mg/kg, iv; assay type: ADME, organism-based; design: dose 5 mg/kg, route intravenous; details: in vivo
Property label: half-life (h)
Answers are plain numbers, in h.

Need half-life of CCCc1cc(=O)oc2c3c(c4c(c12)OC(C)(C)C=C4)OC(CCl)CC3=O (stereo unspecified) , thanks.
1.9

====

test: Mean residence time in Wistar rat at 5 mg/kg, iv; assay type: ADME, organism-based; parameters: dose 5 mg/kg, route intravenous; settings: in vivo
Property label: MRT (h)
Give bare numbers, in h.

Need MRT of CCCc1cc(=O)oc2c3c(c4c(c12)OC(C)(C)C=C4)OC(CCl)CC3=O (stereo unspecified) , thanks.
1.7

====

assay: Selectivity index, ratio of IC50 for African green monkey Vero cells to EC50 for HIV1; type: toxicity, cell-based; settings: read-out: Selectivity Index
Lab note - cut at 700 for selectivity ratio: MET if strictly below, NOT MET if not.

- Molecule: "CCCc1cc(=O)oc2c3c(c4c(c12)OC(C)(C)C=C4)OC(CCl)CC3=O (stereo not given)"
  Assigned class: "NOT MET"
- Molecule: "CCCc1cc(=O)oc2c3c(c4c(c12)OC(C)(C)C=C4)OC(COC)CC3=O (stereo not given)"
  Assigned class: "MET"
- Molecule: "CCCc1cc(=O)oc2c3c(c4c(c12)OC(C)(C)C=C4)O[C@H](C)[C@@H](C)[C@@H]3O [CALANOLIDE A]"
  Assigned class: "MET"

For this molecule, is selectivity ratio lower than 700? Cc1ccnc2c1NC(=O)c1cccnc1N2C1CC1 [NEVIRAPINE]
NOT MET

====

tested on: Human immunodeficiency virus 1; assay: Antiviral activity against HIV1 with reverse transcriptase Y181C mutation; format: functional, organism-based
I'd appreciate it if you could supply pEC50 values for the items below.
Answers are plain numbers, as −log10 of the molar value.

Answered cases to consult:
- Molecule: "CCCc1cc(=O)oc2c3c(c4c(c12)OC(C)(C)C=C4)O[C@H](C)[C@@H](C)[C@@H]3O [CALANOLIDE A]"
  pEC50: 4.98
- Molecule: "Cc1ccnc2c1NC(=O)c1cccnc1N2C1CC1 [NEVIRAPINE]"
  pEC50: 7.37

# value lookup — system Human immunodeficiency virus 1, readout pEC50, item CCCc1cc(=O)oc2c3c(c4c(c12)OC(C)(C)C=C4)OC(CCl)CC3=O (stereo not drawn)
9.34

====

test: Toxicity in African green monkey Vero cells; assay type: cell-based; settings: chlorocebus sabaeus
I'd appreciate it if you could supply CC50 values for the items below.
Answers are plain numbers, in µM.

Answered cases to consult:
- Molecule: "Cc1ccnc2c1NC(=O)c1cccnc1N2C1CC1 [NEVIRAPINE]"
  Readout units: "µM"
  CC50: 27.1
- Molecule: "CCCc1cc(=O)oc2c3c(c4c(c12)OC(C)(C)C=C4)OC(CCl)CC3=O (centres undefined)"
  Readout units: "µM"
  CC50: 10.5
- Molecule: "CCCc1cc(=O)oc2c3c(c4c(c12)OC(C)(C)C=C4)OC(COC)CC3=O (centres undefined)"
  Readout units: "µM"
  CC50: 9.89

--- query ---
Need CC50 of CCCc1cc(=O)oc2c3c(c4c(c12)OC(C)(C)C=C4)O[C@H]1C[C@H]1C3=O (relative stereo) , thanks.
7.14

====

test: Cmax in Wistar rat at 5 mg/kg, iv; assay type: ADME, organism-based; design: dose 5 mg/kg, route intravenous; conditions: in vivo
Property label: Cmax (ng/mL)
Answers are plain numbers, in ng/mL.

Need Cmax of CCCc1cc(=O)oc2c3c(c4c(c12)OC(C)(C)C=C4)OC(CCl)CC3=O (stereo unspecified) , thanks.
930

====

assay: Cmax in Wistar rat at 50 mg/kg, po; format: ADME, organism-based; parameters: dose 50 mg/kg, route oral; settings: in vivo
Property label: Cmax (ng/mL)
Answers are plain numbers, in ng/mL.

Need Cmax of CCCc1cc(=O)oc2c3c(c4c(c12)OC(C)(C)C=C4)OC(CCl)CC3=O (stereo unspecified) , thanks.
340

The values you see were collected from ChEMBL document CHEMBL1156814.
